So I've got a bunch of binders here, and I need their Kd values.
# Measured Target: T1, IFN-αG (human, UniProt P01569 24-189)
# T1 construct: Recombinant, HEK293; also called IFN-α5
# Protocol: ProteOn SPR, cell supernatant;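 note: each binding measurement used just a single antigen concentration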
Answer shape: numeric part, then the unit.

// known answers, use as guide
1) IFWM3400 (antibody, IgG1, V domains shown, mAb; IgG1/kappa said of the parent and of selected mAbs; also called IFWB3135) VH: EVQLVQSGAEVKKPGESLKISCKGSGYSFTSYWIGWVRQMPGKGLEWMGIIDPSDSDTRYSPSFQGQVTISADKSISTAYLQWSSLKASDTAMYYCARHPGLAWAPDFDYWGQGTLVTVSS VL: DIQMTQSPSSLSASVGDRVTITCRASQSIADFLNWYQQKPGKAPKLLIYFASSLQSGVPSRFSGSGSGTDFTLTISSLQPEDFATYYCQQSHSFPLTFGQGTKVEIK : 0.052 nM
2) IFWM3403 (antibody, IgG1, V domains shown, mAb; IgG1/kappa said of the parent and of selected mAbs; also called IFWB3138) VH: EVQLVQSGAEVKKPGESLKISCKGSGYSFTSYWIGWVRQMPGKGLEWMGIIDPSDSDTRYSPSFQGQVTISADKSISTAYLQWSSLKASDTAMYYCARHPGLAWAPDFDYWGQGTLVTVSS VL: DIQMTQSPSSLSASVGDRVTITCRASQSIRNSLNWYQQKPGKAPKLLIKWASSLQSGVPSRFSGSGSGTDFTLTISSLQPEDFATYYCQQLYDWPLTFGQGTKVEIK : 0.027 nM
3) IFWM3415 (antibody, IgG1, V domains shown, mAb; IgG1/kappa said of the parent and of selected mAbs; also called IFWB3150) VH: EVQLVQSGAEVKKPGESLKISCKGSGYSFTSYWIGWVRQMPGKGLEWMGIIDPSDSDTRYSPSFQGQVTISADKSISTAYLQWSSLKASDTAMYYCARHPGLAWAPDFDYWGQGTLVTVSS VL: DIQMTQSPSSLSASVGDRVTITCRASQSISNSNLNWYQQKPGKAPKLLIHWASSLQSGVPSRFSGSGSGTDFTLTISSLQPEDFATYYCQQWYDHPLTFGQGTKVEIK : 0.026 nM
4) IFWM3417 (antibody, IgG1, V domains shown, mAb; IgG1/kappa said of the parent and of selected mAbs; also called IFWB3152) VH: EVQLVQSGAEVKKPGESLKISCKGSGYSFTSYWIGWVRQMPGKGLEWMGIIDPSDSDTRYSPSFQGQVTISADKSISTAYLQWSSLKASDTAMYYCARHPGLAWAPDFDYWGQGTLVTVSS VL: DIQMTQSPSSLSASVGDRVTITCRASQSIANNDLNWYQQKPGKAPKLLIHWASSLQSGVPSRFSGSGSGTDFTLTISSLQPEDFATYYCQQDYDWPLTFGQGTKVEIK : 0.03 nM
5) IFWM3419 (antibody, IgG1, V domains shown, mAb; IgG1/kappa said of the parent and of selected mAbs; also called IFWB3154) VH: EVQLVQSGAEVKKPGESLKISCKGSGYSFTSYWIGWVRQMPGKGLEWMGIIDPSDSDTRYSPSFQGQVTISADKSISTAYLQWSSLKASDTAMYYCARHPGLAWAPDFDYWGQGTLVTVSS VL: DIQMTQSPSSLSASVGDRVTITCRASQSIAGFLNWYQQKPGKAPKLLIYYASSLQSGVPSRFSGSGSGTDFTLTISSLQPEDFATYYCQQSYSIPITFGQGTKVEIK : 0.081 nM

For each listed entry, give its Kd.
1. IFWM3406 (antibody, IgG1, V domains shown, mAb; IgG1/kappa said of the parent and of selected mAbs; also called IFWB3141) VH: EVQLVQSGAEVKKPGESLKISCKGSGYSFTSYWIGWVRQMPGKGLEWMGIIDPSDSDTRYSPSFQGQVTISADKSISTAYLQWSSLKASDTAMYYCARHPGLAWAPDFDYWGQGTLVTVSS VL: DIQMTQSPSSLSASVGDRVTITCRASQSINNLNWYQQKPGKAPKLLIYWASSLQSGVPSRFSGSGSGTDFTLTISSLQPEDFATYYCQQGYDTPFTFGQGTKVEIK
2. IFWM3401 (antibody, IgG1, V domains shown, mAb; IgG1/kappa said of the parent and of selected mAbs; also called IFWB3136) VH: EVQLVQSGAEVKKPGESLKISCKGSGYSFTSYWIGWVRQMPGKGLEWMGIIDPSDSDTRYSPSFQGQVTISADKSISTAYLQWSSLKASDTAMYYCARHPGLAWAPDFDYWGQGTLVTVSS VL: DIQMTQSPSSLSASVGDRVTITCRASQSITNHLNWYQQKPGKAPKLLIYFASSLQSGVPSRFSGSGSGTDFTLTISSLQPEDFATYYCQQAHNFPLTFGQGTKVEIK
3. IFWM3387 (antibody, IgG1, V domains shown, mAb; IgG1/kappa said of the parent and of selected mAbs; also called IFWB3122) VH: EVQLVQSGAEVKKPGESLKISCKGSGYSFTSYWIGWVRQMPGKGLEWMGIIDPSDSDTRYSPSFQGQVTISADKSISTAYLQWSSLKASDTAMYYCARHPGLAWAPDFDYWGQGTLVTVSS VL: DIQMTQSPSSLSASVGDRVTITCRASQSIGGFLNWYQQKPGKAPKLLIYFASSLQSGVPSRFSGSGSGTDFTLTISSLQPEDFATYYCQQSYSLPITFGQGTKVEIK
4. IFWM3405 (antibody, IgG1, V domains shown, mAb; IgG1/kappa said of the parent and of selected mAbs; also called IFWB3140) VH: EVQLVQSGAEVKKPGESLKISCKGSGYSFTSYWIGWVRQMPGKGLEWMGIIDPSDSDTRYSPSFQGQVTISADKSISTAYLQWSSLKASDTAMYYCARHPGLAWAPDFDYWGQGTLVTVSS VL: DIQMTQSPSSLSASVGDRVTITCRASQSIANNNLNWYQQKPGKAPKLLIHWASSLQSGVPSRFSGSGSGTDFTLTISSLQPEDFATYYCQQGYDTPFTFGQGTKVEIK
5. IFWM3372 (antibody, IgG1, V domains shown, mAb; IgG1/kappa said of the parent and of selected mAbs; also called IFWB3107) VH: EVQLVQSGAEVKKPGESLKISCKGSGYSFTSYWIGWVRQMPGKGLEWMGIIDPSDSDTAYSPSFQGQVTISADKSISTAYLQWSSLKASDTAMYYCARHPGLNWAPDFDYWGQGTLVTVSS VL: DIQMTQSPSSLSASVGDRVTITCRASQSIDNNNLNWYQQKPGKAPKLLIYAASSLQSGVPSRFSGSGSGTDFTLTISSLQPEDFATYYCQQGYDWPLTFGQGTKVEIK

1. 0.037 nM
2. 0.067 nM
3. 0.034 nM
4. 0.015 nM
5. 0.103 nM
